This collection of values is drawn from ChEMBL document CHEMBL3399989.

System: Tyrosine-protein phosphatase non-receptor type 1 (Homo sapiens, UniProt P18031) | Read-out: pIC50
Sequence (P18031 whole entry): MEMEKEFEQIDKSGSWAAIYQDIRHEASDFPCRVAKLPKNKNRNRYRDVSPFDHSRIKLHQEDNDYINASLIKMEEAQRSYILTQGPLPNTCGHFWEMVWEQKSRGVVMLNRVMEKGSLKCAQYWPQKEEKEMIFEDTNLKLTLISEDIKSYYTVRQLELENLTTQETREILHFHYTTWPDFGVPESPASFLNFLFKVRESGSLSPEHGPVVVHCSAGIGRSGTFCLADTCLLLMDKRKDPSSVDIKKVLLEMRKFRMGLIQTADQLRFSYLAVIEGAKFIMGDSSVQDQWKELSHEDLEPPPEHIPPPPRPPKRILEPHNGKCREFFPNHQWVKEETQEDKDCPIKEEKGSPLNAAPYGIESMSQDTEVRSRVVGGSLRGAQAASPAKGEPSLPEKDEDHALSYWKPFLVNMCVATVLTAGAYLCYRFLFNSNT
Please treat pIC50 as minus the base-10 logarithm of the molar concentration.

As a guide, the following entries are already answered.
Could you share which pIC50 value was measured for COc1c2ccoc2cc2oc(=O)ccc12 ?
4.93

Okay, and CC(C)C(=O)O[C@H]1Cc2c(ccc3ccc(=O)oc23)OC1(C)C ?
4.52

Okay, and C=C(C)C(Cc1c(OC)ccc(C(=O)/C=C/c2ccc(O)cc2)c1O)OO (stereo not drawn) ?
5.41

Okay, and C=C[C@@H](O)C#CC#C[C@@H](O)/C=C\CCCCCCC ?
4.50

Okay, and CC1(C)Oc2ccc3ccc(=O)oc3c2[C@@H](O)[C@H]1O (relative stereo) ?
4.40

Okay, and CCOC1c2c(OC)ccc(C(=O)/C=C/c3ccc(O)cc3)c2OC1C(C)(C)O (stereo not drawn) ?
4.95

Further cases:
Could you share which pIC50 value was measured for C[C@@H]1O[C@@H](Oc2c(-c3ccc(O)c(O)c3)oc3cc(O)cc(O)c3c2=O)[C@H](O)[C@H](O)[C@H]1O ?
4.41

Okay, and C/C=C(/C)C(=O)O[C@@H]1Cc2c(ccc3ccc(=O)oc23)OC1(C)C ?
4.45
